Here, each record is paired with measured ΔTm data.
# tgt: Cyclin-dependent kinase 2 (Homo sapiens) (UniProt P24941)
# conditionInfo: Compound concentration 20.0 uM
# Description: Thermal Shift Assay. Domain: start/stop: M1-L298
Residues, ends and D or L forms follow the SMILES beside them. *: point of attachment. Boc = CC(C)(C)OC(=O)*
Express your answer in °C, writing the number without its unit.

Take a look at these entries with their results.
# molecule, tgt, quantitativeReadout
data = [
    ("CC(C)(C)OC(=O)N1CCC[C@H]1C(=O)N1CCC[C@H]1C=O (Boc-Pro-Pro-aldehyde)", "Cyclin-dependent kinase 2 (Homo sapiens) (UniProt P24941)", 0.06),
    ("CC(C)c1cc(C(=O)N2CC[C@@H](NC(=O)C3CC3)C2)[nH]n1", "Cyclin-dependent kinase 2 (Homo sapiens) (UniProt P24941)", 0.06),
    ("CCN(CC)S(=O)(=O)c1cc(Nc2nccc(-c3ccnc(-c4ccc(NC(=O)NC)cc4)c3)n2)ccc1Cl", "Cyclin-dependent kinase 2 (Homo sapiens) (UniProt P24941)", 0),
    ("CC(C)(CNC(=O)c1cccc(-c2noc(C(F)(F)F)n2)c1)c1coc(-c2ccccc2)n1", "Cyclin-dependent kinase 2 (Homo sapiens) (UniProt P24941)", 0.39),
    ("CCCCCCNC(=O)n1cc(Cl)c(=O)n(C(=O)OCC(C)C)c1=O", "Cyclin-dependent kinase 2 (Homo sapiens) (UniProt P24941)", 0.16),
]

Ask: Need ΔTm of `CC(C)C(=O)SCCCCCCC(=O)Nc1nc(-c2ccccc2)cs1` , thanks.
Result: 0.18

Ask: Need ΔTm of `CCCc1nc(C)c2c(=O)nc(-c3cc(S(=O)(=O)N4CCN(CC)CC4)ccc3OCC)[nH]n12` , thanks.
Result: 1

Ask: Need ΔTm of `CC(C)c1c(-c2cnn(C(C)(C)C)c2)[nH]c2c(C#N)cnn2c1=O` , thanks.
Result: 0.15

----------
# tgt: Glycogen synthase kinase-3 beta (Homo sapiens) (UniProt P49841)
# Sequence (P49841 whole entry, looked up): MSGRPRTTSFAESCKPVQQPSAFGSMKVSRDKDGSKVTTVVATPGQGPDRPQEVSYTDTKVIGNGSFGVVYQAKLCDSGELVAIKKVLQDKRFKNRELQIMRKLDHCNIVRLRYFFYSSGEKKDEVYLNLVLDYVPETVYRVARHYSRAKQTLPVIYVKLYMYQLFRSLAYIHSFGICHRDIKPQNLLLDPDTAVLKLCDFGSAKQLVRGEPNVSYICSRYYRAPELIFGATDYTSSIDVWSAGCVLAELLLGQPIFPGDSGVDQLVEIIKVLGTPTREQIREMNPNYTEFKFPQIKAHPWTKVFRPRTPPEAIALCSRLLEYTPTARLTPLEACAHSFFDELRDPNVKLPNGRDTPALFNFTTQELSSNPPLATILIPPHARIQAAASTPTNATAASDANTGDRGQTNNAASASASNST
# conditionInfo: Compound concentration 20.0 uM
# Description: Thermal Shift Assay. Domain: start/stop: M26-R383
assayMetric: ΔTm (°C)
Express your answer in °C, writing the number without its unit.

Take a look at these entries with their results.
# molecule, quantitativeReadout
rows = [
    ("O=C(CN1CCN(C(=O)c2ccco2)CC1)Nc1cc(C(F)(F)F)ccc1Cl", -0.95),
    ("Cc1cc(-n2cccc2)c(S(C)(=O)=O)cc1C(=O)N=C(N)N", -0.28),
    ("CN1Cc2c(Cl)cc(Cl)cc2[C@H](c2cccc(S(=O)(=O)NCCOCCOCCNC(=O)NCCCCNC(=O)NCCOCCOCCNS(=O)(=O)c3cccc([C@@H]4CN(C)Cc5c(Cl)cc(Cl)cc54)c3)c2)C1", -1.54),
]

Ask: Entry `COc1cc2c(NCC3CCN(C)CC3)cc(-c3ccc(C)o3)nc2cc1OCCCN1CCCC1` , system Glycogen synthase kinase-3 beta (Homo sapiens) (UniProt P49841): what ΔTm was measured?
Result: -1.71

Ask: Entry O=C1Nc2ccccc2C2(CCN(CC(Cc3ccccc3)Nc3nc4ccc(F)cc4s3)CC2)N1 (stereo unspecified) , system Glycogen synthase kinase-3 beta (Homo sapiens) (UniProt P49841): what ΔTm was measured?
Result: -1.4

----------
Here, each record is paired with measured ΔTm data.
# tgt: Casein kinase I isoform delta (Homo sapiens) (UniProt P48730)
# Sequence (P48730 whole entry, looked up, canonical isoform): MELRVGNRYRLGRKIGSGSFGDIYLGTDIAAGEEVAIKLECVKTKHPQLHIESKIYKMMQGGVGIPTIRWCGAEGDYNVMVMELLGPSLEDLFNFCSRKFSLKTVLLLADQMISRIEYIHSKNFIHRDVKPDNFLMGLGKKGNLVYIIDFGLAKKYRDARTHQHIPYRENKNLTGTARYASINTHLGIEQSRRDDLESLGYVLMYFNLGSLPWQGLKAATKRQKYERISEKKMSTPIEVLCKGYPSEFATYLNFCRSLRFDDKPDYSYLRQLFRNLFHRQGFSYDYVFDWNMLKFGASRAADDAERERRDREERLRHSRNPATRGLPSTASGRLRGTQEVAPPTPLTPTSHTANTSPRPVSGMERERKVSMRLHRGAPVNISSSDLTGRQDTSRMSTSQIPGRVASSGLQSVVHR
# conditionInfo: Compound concentration 20.0 uM
# Description: Thermal Shift Assay. Domain: start/stop: M1-K294
Express your answer in °C, writing the number without its unit.

# compoundSmiles, ΔTm, °C
rows = [
    ("O=C(NCCCCCCCCNC(=O)C(Cl)Cl)C(Cl)Cl", -0.18),
    ("COc1cc([C@@H]2Oc3c(O)cc([C@H]4Oc5cc(O)cc(O)c5C(=O)[C@@H]4O)cc3[C@H]2CO)ccc1O", 0.36),
    ("CN(C)CCCNC(=O)c1ccc(-c2cc(O)c3ncccc3c2)cc1", 0.58),
    ("Cc1cc(-n2cccc2)c(S(C)(=O)=O)cc1C(=O)N=C(N)N", -0.26),
    ("Cn1c(NCCN(CCO)CCCc2ccc([N+](=O)[O-])cc2)cc(=O)n(C)c1=O", -0.29),
]

Ask: Need ΔTm of `CC(C)Oc1ccc2c(=O)[nH]c3sccc3c2c1` , thanks.
Result: 1.82

Ask: Need ΔTm of `C[C@@H]1CN(c2nccc(Nc3ccc4c(c3)n(CCC(C)(C)O)c(=O)n4C)n2)C[C@H](C)C1(F)F` , thanks.
Result: -0.23
